System: Escherichia coli TOP10;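 note: peptides expressed intracellularly from a pBAD plasmid library in pooled LB shake-flask culture, induced with 0.3% L-arabinose, DNA abundance read by NGS, three biological replicates, DESeq2 with apeglm shrinkage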
Assay Method Text: shrunken log2 fold change of peptide-encoding DNA abundance (4.5 h post-induction vs induction); higher = less antimicrobial activity (less host growth inhibition)
Condition Notes: time post-induction: 4.5 h; library: site-saturation at positions 5, 18, 19, 20

{"Primary Sequence": "RRIRARPPRLPRPRPRPYPTPRP", "shrunken log2 fold change": -0.0691}
{"Primary Sequence": "RRIRDRPPRLPRPRPRPLLCPRP", "shrunken log2 fold change": 0.503}
{"Primary Sequence": "RRIRCRPPRLPRPRPRPCGDPRP", "shrunken log2 fold change": 0.0996}
{"Primary Sequence": "RRIRHRPPRLPRPRPRPRARPRP", "shrunken log2 fold change": 0.814}
{"Primary Sequence": "RRIRMRPPRLPRPRPRPACMPRP", "shrunken log2 fold change": 0.64}
{"Primary Sequence": "RRIRQRPPRLPRPRPRPSNQPRP", "shrunken log2 fold change": -0.359}
{"Primary Sequence": "RRIRERPPRLPRPRPRPTCAPRP", "shrunken log2 fold change": -0.162}
{"Primary Sequence": "RRIRCRPPRLPRPRPRPYSMPRP", "shrunken log2 fold change": -0.905}
{"Primary Sequence": "RRIRARPPRLPRPRPRPYSLPRP", "shrunken log2 fold change": -0.187}
{"Primary Sequence": "RRIRRRPPRLPRPRPRPCKGPRP", "shrunken log2 fold change": 0.0306}
{"Primary Sequence": "RRIRLRPPRLPRPRPRPYALPRP", "shrunken log2 fold change": -0.141}
{"Primary Sequence": "RRIRVRPPRLPRPRPRPHCLPRP", "shrunken log2 fold change": -1.63}
{"Primary Sequence": "RRIRGRPPRLPRPRPRPSENPRP", "shrunken log2 fold change": 0.359}
{"Primary Sequence": "RRIRIRPPRLPRPRPRPRYPPRP", "shrunken log2 fold change": -0.0444}
{"Primary Sequence": "RRIRIRPPRLPRPRPRPSGPPRP", "shrunken log2 fold change": -0.21}
{"Primary Sequence": "RRIRMRPPRLPRPRPRPWMNPRP", "shrunken log2 fold change": -0.00973}
{"Primary Sequence": "RRIRGRPPRLPRPRPRPHTEPRP", "shrunken log2 fold change": -0.0408}
{"Primary Sequence": "RRIRSRPPRLPRPRPRPPWCPRP", "shrunken log2 fold change": 0.309}
{"Primary Sequence": "RRIRPRPPRLPRPRPRPPNDPRP", "shrunken log2 fold change": 0.111}
{"Primary Sequence": "RRIRNRPPRLPRPRPRPAMDPRP", "shrunken log2 fold change": 0.166}
{"Primary Sequence": "RRIRIRPPRLPRPRPRPHEVPRP", "shrunken log2 fold change": -0.0624}
{"Primary Sequence": "RRIRNRPPRLPRPRPRPGSLPRP", "shrunken log2 fold change": -0.0901}
{"Primary Sequence": "RRIRKRPPRLPRPRPRPRLYPRP", "shrunken log2 fold change": 0.0187}
{"Primary Sequence": "RRIRARPPRLPRPRPRPQVMPRP", "shrunken log2 fold change": -0.00224}
{"Primary Sequence": "RRIRQRPPRLPRPRPRPTMVPRP", "shrunken log2 fold change": -0.148}
{"Primary Sequence": "RRIRHRPPRLPRPRPRPLYWPRP", "shrunken log2 fold change": -0.276}
{"Primary Sequence": "RRIRIRPPRLPRPRPRPCECPRP", "shrunken log2 fold change": 0.0112}
{"Primary Sequence": "RRIRERPPRLPRPRPRPPLNPRP", "shrunken log2 fold change": -0.192}
{"Primary Sequence": "RRIRARPPRLPRPRPRPAWMPRP", "shrunken log2 fold change": -0.00906}
{"Primary Sequence": "RRIRLRPPRLPRPRPRPSASPRP", "shrunken log2 fold change": 0.0218}
{"Primary Sequence": "RRIRKRPPRLPRPRPRPQWCPRP", "shrunken log2 fold change": 0.149}
{"Primary Sequence": "RRIRARPPRLPRPRPRPLQTPRP", "shrunken log2 fold change": 0.0966}
